- system under test: Toll-like receptor 4 (Homo sapiens) (UniProt O00206)
- Sequence (O00206 whole entry): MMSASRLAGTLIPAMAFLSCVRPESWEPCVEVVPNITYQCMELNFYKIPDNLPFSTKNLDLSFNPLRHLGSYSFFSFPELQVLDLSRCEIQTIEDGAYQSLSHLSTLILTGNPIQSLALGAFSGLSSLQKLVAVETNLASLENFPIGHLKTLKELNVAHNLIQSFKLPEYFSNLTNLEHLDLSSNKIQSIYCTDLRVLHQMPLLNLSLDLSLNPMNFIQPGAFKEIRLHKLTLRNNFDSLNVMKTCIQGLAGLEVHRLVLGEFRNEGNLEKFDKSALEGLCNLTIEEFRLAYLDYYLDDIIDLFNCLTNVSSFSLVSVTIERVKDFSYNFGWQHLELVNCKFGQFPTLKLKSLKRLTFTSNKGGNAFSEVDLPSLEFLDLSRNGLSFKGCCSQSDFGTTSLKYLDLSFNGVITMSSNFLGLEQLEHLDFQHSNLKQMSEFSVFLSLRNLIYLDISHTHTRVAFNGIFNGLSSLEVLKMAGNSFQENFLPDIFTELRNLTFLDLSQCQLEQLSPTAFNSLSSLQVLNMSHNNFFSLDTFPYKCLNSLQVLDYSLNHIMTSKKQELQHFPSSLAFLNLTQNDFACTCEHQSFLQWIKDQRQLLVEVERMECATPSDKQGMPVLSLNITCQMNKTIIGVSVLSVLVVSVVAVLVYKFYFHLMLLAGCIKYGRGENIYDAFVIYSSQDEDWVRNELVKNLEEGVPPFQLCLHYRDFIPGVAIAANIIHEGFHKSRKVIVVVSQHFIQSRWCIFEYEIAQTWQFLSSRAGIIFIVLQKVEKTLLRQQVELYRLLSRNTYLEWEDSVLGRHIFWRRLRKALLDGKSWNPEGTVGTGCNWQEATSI
- assay remarks: Activation of TLR4 in human PBMC cells assessed as AUC of IL8 release at 10 uM after 18 hrs by ELISA relative to N-cyclohexyl-2-(4-oxo-3-phenyl-4,5-dihydro-3H-pyrimido[5,4-b]indol-2-ylthio)acetamide
- Format: cell-based
measured quantity: Activity (%)

Reference set (5 entries):
| compound | measured quantity | result number |
| --- | --- | --- |
| O=C(CSc1nc2c3ccccc3nc-2c(O)n1-c1ccccc1)NCC1CCCO1 (centres undefined) | Activity | 8 |
| COC(=O)CCCn1c2ccccc2c2nc(SCC(=O)NC3CCCCC3)n(-c3ccccc3)c(=O)c21 | Activity | 124 |
| O=C(CSc1nc2c([nH]c3ccccc32)c(=O)n1-c1ccccc1)Nc1ccccc1 | Activity | 15 |
| O=C(CSc1nc2c([nH]c3ccccc32)c(=O)n1-c1ccccc1)Nc1ccc2cn[nH]c2c1 | Activity | 7 |
| O=C(CSc1nc2c([nH]c3ccccc32)c(=O)n1C1CCCCC1)NC1CCCCC1 | Activity | 27 |

1: N#CCn1c2ccccc2c2nc(SCC(=O)NC3CCCCC3)n(-c3ccccc3)c(=O)c21
2: CC(C)CCNC(=O)CSc1nc2c([nH]c3ccccc32)c(=O)n1-c1ccccc1
3: Cn1c2ccccc2c2nc(SCC(=O)NC3CCCCC3)n(-c3ccccc3)c(=O)c21
Ask: Arrange items by their Activity values in increasing order. Give the labels in the order requested.
Result: 1, 2, 3
(1: 30%, 2: 53%, 3: 79%)

###

- system under test: Toll-like receptor 4 (Mus musculus)
- assay remarks: Activation of TLR4 in C57BL/6 mouse BMDC cells assessed as AUC of IP10 release at 5 uM after 18 hrs by ELISA relative to N-cyclohexyl-2-(4-oxo-3-phenyl-4,5-dihydro-3H-pyrimido[5,4-b]indol-2-ylthio)acetamide
- Format: cell-based
measured quantity: Activity (%)

| molecule | system under test | Activity, % |
| --- | --- | --- |
| O=C(CSc1nc2c([nH]c3ccccc32)c(=O)n1-c1ccccc1)NC1CCCCC1 | Toll-like receptor 4 (Mus musculus) | 100 |
| CC(C)CNC(=O)CSc1nc2c([nH]c3ccccc32)c(=O)n1-c1ccccc1 | Toll-like receptor 4 (Mus musculus) | 53 |
| O=C(CSc1nc2c([nH]c3ccccc32)c(=O)n1C1CCCCC1)NC1CCCCC1 | Toll-like receptor 4 (Mus musculus) | 61 |
| CCC(C)CCNC(=O)CSc1nc2c([nH]c3ccccc32)c(=O)n1-c1ccccc1 (stereo not drawn) | Toll-like receptor 4 (Mus musculus) | 45 |

A: Cn1c2ccccc2c2nc(SCC(=O)NC3CCCCC3)n(-c3ccccc3)c(=O)c21
B: CC(C)CCNC(=O)CSc1nc2c([nH]c3ccccc32)c(=O)n1-c1ccccc1
Ask: # min-compare on Activity between A and B Please reply using the label of the selected record.
Result: B
(B: 62%, A: 99%)

P: N#CCn1c2ccccc2c2nc(SCC(=O)NC3CCCCC3)n(-c3ccccc3)c(=O)c21
Q: O=C(CSc1nc2c([nH]c3ccccc32)c(=O)n1-c1ccccc1)NC1CCCCCC1
Ask: Please indicate which entry, P or Q , has the lower recorded Activity value. Lab note: record the label of whichever item you select.
Result: P
(P: 64%, Q: 107%)

I: CCCCNC(=O)CSc1nc2c([nH]c3ccccc32)c(=O)n1-c1ccccc1
II: CCC(CC)NC(=O)CSc1nc2c([nH]c3ccccc32)c(=O)n1-c1ccccc1
III: CCCCCNC(=O)CSc1nc2c([nH]c3ccccc32)c(=O)n1-c1ccccc1
IV: O=C(CSc1nc2c([nH]c3ccccc32)c(=O)n1-c1ccccc1)NC1CCCCCCC1
Ask: List from greatest to least Activity. # the answer lists labels in the order requested
Result: IV, I, III, II

a: O=C(CSc1nc2c([nH]c3ccccc32)c(=O)n1-c1ccc(F)cc1)NC1CCCCC1
b: O=C(CSc1nc2c([nH]c3ccccc32)c(=O)n1C1CCCCC1)NC1CCCC1
c: COC(=O)CCCn1c2ccccc2c2nc(SCC(=O)NC3CCCCC3)n(-c3ccccc3)c(=O)c21
Ask: Returns the items ordered by Activity, from maximum to minimum. Please list the labels according to the requested order.
Result: a, b, c

I: O=C(CSc1nc2c([nH]c3ccccc32)c(=O)n1-c1ccccc1)NC1CCCC1
II: CC(C)(C)CCNC(=O)CSc1nc2c([nH]c3ccccc32)c(=O)n1-c1ccccc1
Ask: # return whichever of I and II has the smaller Activity Indicate your choice by writing its label.
Result: I
(I: 52%, II: 85%)

a: O=C(CSc1nc2c([nH]c3ccccc32)c(=O)n1-c1ccccc1)Nc1ccccc1F
b: O=C(CSc1nc2c([nH]c3ccccc32)c(=O)n1-c1ccccc1)NCc1ccco1
Ask: When the recorded Activity values are compared, which is smaller: that of a or that of b ? In your reply, give the label of the chosen option.
Result: b
(b: 26%, a: 54%)

A: O=C(CSc1nc2c([nH]c3ccccc32)c(=O)n1-c1ccccc1)Nc1ccccc1
B: O=C(CSc1nc2c([nH]c3ccccc32)c(=O)n1-c1ccccc1)Nc1ccc(F)cc1
Ask: // compare measured Activity, left A , right B , return larger Indicate your choice by writing its label.
Result: B
(B: 70%, A: 44%)

A: O=C(CSc1nc2c([nH]c3ccccc32)c(=O)n1-c1ccccc1)NC1CCC1
B: O=C(CSc1nc2c([nH]c3ccccc32)c(=O)n1-c1ccccc1)Nc1cccc(F)c1
Ask: Out of A and B , name the one with the higher Activity. Label of pick, please.
Result: A
